TEST_NAME: Effect of concentration on the stability of the solution (purity over time)
EXPERIMENTAL_PARAMETERS: 50 wt %; in water at 25° C.
EXPERIMENTAL_ENDPOINT: Purity at Day 21

CCN(CC)CCOC(=O)Cc1ccc(C(=O)c2ccc(C)cc2)n1C.Cl; 96.9%
CCN(CC)CCOC(=O)CCc1ccc2cc(OC)ccc2c1.Cl; 97.8%
CCN(CC)CCOC(=O)C(C)c1ccc2oc(-c3ccc(Cl)cc3)nc2c1.Cl (stereo not shown); 97.9%
CCN(CC)CCOC(=O)Cc1sc(-c2ccccc2)nc1-c1ccc(Cl)cc1.Cl; 98.9%
CCN(CC)CCOC(=O)CC1=C(C)C(=Cc2ccc([S+](C)[O-])cc2)c2ccc(F)cc21.Cl (stereo not shown); 96.8%
CCN(CC)CCOC(=O)Cc1c(C)n(C(=O)c2ccc(Cl)cc2)c2ccc(OC)cc12.Cl; 97.9%
CCN(CC)CCOC(=O)CCc1nc(-c2ccccc2)c(-c2ccccc2)o1.Cl; 97.8%

---

# Purity(%) at Day 14 annotations
TEST_NAME: Effect of concentration on the stability of the solution (purity over time)
EXPERIMENTAL_PARAMETERS: 1 wt % in 50% ethanol, 25° C.
EXPERIMENTAL_ENDPOINT: Purity(%) at Day 14

CC(C)OC(=O)C(N)Cc1ccccc1 (centres unmarked) [Isopropyl 2-amino-3-phenylpropanoate, reference compound]; 97.2
CCOC(=O)c1ccccc1 [Ethyl benzoate, reference compound]; 97.5
CC(C)OC(=O)c1ccccc1 [Isopropyl benzoate, reference compound]; 98.3
CC(C)(C)OC(=O)C(N)Cc1ccccc1 (centres unmarked) [t-Butyl 2-amino-3-phenylpropanoate, reference compound]; 88.9
CC(C)(C)OC(=O)c1ccccc1 [t-Butyl benzoate, reference compound]; 0.0

---

TEST_NAME: Effect of concentration on the stability of the solution (purity over time)
EXPERIMENTAL_PARAMETERS: 0.1 wt % in 50% ethanol, 25° C.
# Purity (%) at hr 0 annotations
EXPERIMENTAL_ENDPOINT: Purity (%) at hr 0

CC(C)OC(=O)c1ccccc1 [Isopropyl benzoate, reference compound]; 98.4
CCOC(=O)c1ccccc1 [Ethyl benzoate, reference compound]; 97.9
CC(C)(C)OC(=O)c1ccccc1 [t-Butyl benzoate, reference compound]; 97.4
CC(C)(C)OC(=O)C(N)Cc1ccccc1 (centres unmarked) [t-Butyl 2-amino-3-phenylpropanoate, reference compound]; 98.0
CC(C)OC(=O)C(N)Cc1ccccc1 (centres unmarked) [Isopropyl 2-amino-3-phenylpropanoate, reference compound]; 98.5

---

TEST_NAME: Effect of temperature (and pH) on the stability of the solution (purity)
Type: physicochemical
EXPERIMENTAL_PARAMETERS: 7% solution in water, pH 2.0, day 0
# Purity(%) at day 0 annotations
EXPERIMENTAL_ENDPOINT: Purity(%) at day 0

CCN(CC)CCOC(=O)CC1=C(C)C(=Cc2ccc([S+](C)[O-])cc2)c2ccc(F)cc21.Cl (stereo not shown); 97.3
CCN(CC)CCOC(=O)CCc1ccc2cc(OC)ccc2c1.Cl; 98.1
CCN(CC)CCOC(=O)Cc1c(C)n(C(=O)c2ccc(Cl)cc2)c2ccc(OC)cc12.Cl; 98.3
CCN(CC)CCOC(=O)c1cc(-c2ccc(F)cc2F)ccc1OC(C)=O.Cl; 99.1
